# measured target: chromatographically-purified MMP-13 (Collagenase-3) (Homo sapiens (Human))
# experimental protocol: MMP-13 inhibition in vitro, octapeptide/HPLC
# Assay type: biochemical
# measurement setup: standard 1,10-phenanthroline
I'd appreciate it if you could supply Ratio = IC50 test compound/IC50 standard, MMP-13 values for the items below.
// keep it numeric: no unit symbol after the value

Endpoint output: Ratio = IC50 test compound/IC50 standard, MMP-13 of COc1cc(/C=C/C(=O)CC(=O)/C=C/c2ccc(N(C)C)cc2)ccc1O [Compound 4] . Value?
62.5

Reported Ratio = IC50 test compound/IC50 standard, MMP-13 for c1cnc2c(c1)ccc1cccnc12 [1,10-O-phenanthroline, reference compound] : what is it?
1.0

What does the record list as Ratio = IC50 test compound/IC50 standard, MMP-13 for CN(C)c1ccc(/C=C/C(=O)C(C(=O)/C=C/c2ccc(N(C)C)cc2)C(=O)Nc2ccccc2)cc1 [Compound 8] ?
11.3

If you can, please state the reported Ratio = IC50 test compound/IC50 standard, MMP-13 value of COC(=O)C(C(=O)/C=C/c1ccc(O)cc1)C(=O)/C=C/c1ccc(O)cc1 [Compound 3] .
2.0

====

# measured target: purified human PMN MMP-8 (Homo sapiens (Human), UniProt P22894)
# Sequence (P22894 101-467): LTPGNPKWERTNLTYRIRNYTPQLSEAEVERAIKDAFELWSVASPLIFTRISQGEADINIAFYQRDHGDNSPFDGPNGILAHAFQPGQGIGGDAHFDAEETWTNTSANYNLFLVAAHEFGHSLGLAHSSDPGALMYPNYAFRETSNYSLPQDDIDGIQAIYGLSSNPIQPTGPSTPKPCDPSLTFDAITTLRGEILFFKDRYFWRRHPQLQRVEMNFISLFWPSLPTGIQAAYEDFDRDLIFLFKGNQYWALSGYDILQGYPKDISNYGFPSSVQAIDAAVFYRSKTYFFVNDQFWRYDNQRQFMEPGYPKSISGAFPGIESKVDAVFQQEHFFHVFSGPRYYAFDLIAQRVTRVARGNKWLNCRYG
# experimental protocol: MMP-8 inhibition, synthetic octapeptide substrate, tripeptide product by HPLC
# Assay type: biochemical
# measurement setup: Table 1 experiments; read-out: IC50 against purified hMMP-8
measurement label: pIC50
Please treat pIC50 as minus the base-10 logarithm of the molar concentration.

Item COC(=O)C(C(=O)/C=C/c1ccc(O)c(OC)c1)C(=O)/C=C/c1ccc(O)c(OC)c1 [Compound 1] with purified human PMN MMP-8 (Homo sapiens (Human), UniProt P22894) - pIC50?
4.46

====

Assign IC50 to each entry below.
# measured target: chromatographically-purified MMP-2 (Homo sapiens (Human), UniProt P08253)
# Sequence (P08253 110-660): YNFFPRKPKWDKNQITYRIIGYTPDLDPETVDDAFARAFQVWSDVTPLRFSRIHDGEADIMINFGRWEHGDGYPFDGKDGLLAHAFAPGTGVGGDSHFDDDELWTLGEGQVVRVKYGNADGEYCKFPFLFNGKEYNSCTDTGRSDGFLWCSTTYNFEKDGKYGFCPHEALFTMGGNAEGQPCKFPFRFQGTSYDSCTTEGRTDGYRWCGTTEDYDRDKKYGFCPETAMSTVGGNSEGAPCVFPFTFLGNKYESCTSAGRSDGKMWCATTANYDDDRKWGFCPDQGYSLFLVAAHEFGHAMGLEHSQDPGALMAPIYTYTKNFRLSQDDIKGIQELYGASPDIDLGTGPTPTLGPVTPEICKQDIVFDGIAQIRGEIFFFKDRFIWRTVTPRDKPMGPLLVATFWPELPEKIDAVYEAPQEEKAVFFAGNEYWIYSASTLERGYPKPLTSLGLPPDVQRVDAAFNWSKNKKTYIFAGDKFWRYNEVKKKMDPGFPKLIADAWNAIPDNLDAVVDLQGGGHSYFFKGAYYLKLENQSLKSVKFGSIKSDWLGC
# experimental protocol: MMP-2 inhibition in vitro, octapeptide/HPLC
# Assay type: biochemical
# measurement setup: read-out: IC50 MMP-2
Report only the number, with the unit µM understood.

GET /values?readout=IC50&item= `COC(=O)C(C(=O)/C=C/c1ccc(O)c(OC)c1)C(=O)/C=C/c1ccc(O)c(OC)c1`
48

Item c1cnc2c(c1)ccc1cccnc12 [1,10-O-phenanthroline, reference compound] has what recorded IC50?
70

Quick check: IC50 of `O=C(/C=C/c1ccc(O)cc1)C(C(=O)/C=C/c1ccc(O)cc1)C(=O)Nc1ccccc1` ?
125

Endpoint output: IC50 of `COc1cc(/C=C/C(=O)C(C(=O)/C=C/c2ccc(O)c(OC)c2)C(=O)Nc2ccccc2)ccc1O` . Value?
85

Name the recorded IC50 for `COC(=O)C(C(=O)/C=C/c1ccc(O)cc1)C(=O)/C=C/c1ccc(O)cc1` .
70

====

So I've got a bunch of compounds here, and I need their Ratio = IC50 test compound/IC50 standard, MMP-2 values.
# measured target: chromatographically-purified MMP-2 (Homo sapiens (Human))
# experimental protocol: MMP-2 inhibition in vitro, octapeptide/HPLC
# Format: biochemical
# measurement setup: standard 1,10-phenanthroline
A bare number is all that is needed in reply.

Recorded Ratio = IC50 test compound/IC50 standard, MMP-2 for c1cnc2c(c1)ccc1cccnc12 [1,10-O-phenanthroline, reference compound] with chromatographically-purified MMP-2 (Homo sapiens (Human)), please?
1.0

Lab note: need Ratio = IC50 test compound/IC50 standard, MMP-2 with chromatographically-purified MMP-2 (Homo sapiens (Human)) for entry O=C(/C=C/c1ccc(O)cc1)C(C(=O)/C=C/c1ccc(O)cc1)C(=O)Nc1ccccc1 [Compound 7] , please look it up.
1.8

What value of Ratio = IC50 test compound/IC50 standard, MMP-2 on chromatographically-purified MMP-2 (Homo sapiens (Human)) does COC(=O)C(C(=O)/C=C/c1ccc(O)cc1)C(=O)/C=C/c1ccc(O)cc1 [Compound 3] have?
1.0

====

# measured target: MMP-9 (human leukocyte gelatinase) (Homo sapiens (Human), UniProt P14780)
# Sequence (P14780 94-707): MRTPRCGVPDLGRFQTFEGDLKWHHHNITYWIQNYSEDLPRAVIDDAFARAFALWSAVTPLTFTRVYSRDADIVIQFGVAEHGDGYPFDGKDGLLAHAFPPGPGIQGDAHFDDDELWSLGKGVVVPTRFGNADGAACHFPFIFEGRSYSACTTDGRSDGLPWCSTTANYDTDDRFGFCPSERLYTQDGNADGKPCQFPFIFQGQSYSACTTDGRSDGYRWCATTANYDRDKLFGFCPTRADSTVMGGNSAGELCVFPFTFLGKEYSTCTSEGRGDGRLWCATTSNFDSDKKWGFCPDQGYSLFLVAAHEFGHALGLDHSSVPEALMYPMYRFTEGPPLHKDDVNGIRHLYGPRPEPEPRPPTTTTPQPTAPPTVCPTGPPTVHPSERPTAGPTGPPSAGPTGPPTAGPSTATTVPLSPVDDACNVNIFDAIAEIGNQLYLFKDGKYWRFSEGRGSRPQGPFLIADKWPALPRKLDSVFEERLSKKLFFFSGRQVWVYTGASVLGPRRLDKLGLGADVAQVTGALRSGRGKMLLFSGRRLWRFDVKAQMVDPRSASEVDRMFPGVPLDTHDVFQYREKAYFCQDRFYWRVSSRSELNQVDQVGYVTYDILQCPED
# experimental protocol: MMP-9 inhibition in vitro, octapeptide/HPLC
# Format: biochemical
Consider the following molecules; for each one, report its IC50.
// note: answer is a bare numeric in µM

Find IC50 (MMP-9 (human leukocyte gelatinase) (Homo sapiens (Human), UniProt P14780)) for the entry COC(=O)C(C(=O)/C=C/c1ccc(O)c(OC)c1)C(=O)/C=C/c1ccc(O)c(OC)c1 [Compound 1]
16

So what IC50 did c1cnc2c(c1)ccc1cccnc12 [1,10-O-phenanthroline, reference compound] get with MMP-9 (human leukocyte gelatinase) (Homo sapiens (Human), UniProt P14780)?
9

What IC50 appears in the records for this molecule with MMP-9 (human leukocyte gelatinase) (Homo sapiens (Human), UniProt P14780)? COc1cc(/C=C/C(=O)CC(=O)/C=C/c2ccc(N(C)C)cc2)ccc1O [Compound 4]
17

Could you share what IC50 was measured for COc1cc(/C=C/C(=O)CC(=O)/C=C/c2ccc(O)c(OC)c2)ccc1O [curcumin] , tested on MMP-9 (human leukocyte gelatinase) (Homo sapiens (Human), UniProt P14780)?
29

Form entry - test system: MMP-9 (human leukocyte gelatinase) (Homo sapiens (Human), UniProt P14780); read-out: IC50; molecule: COC(=O)C(C(=O)/C=C/c1ccc(O)cc1)C(=O)/C=C/c1ccc(O)cc1 [Compound 3]
6

Origin of measurements: patent US9187406B2
